The binders listed here are annotated with their Kd.
# tgt: GPC3 (analyte of Tables 9 and 10) (UniProt P51654 25-559, limits assumed)
# method description: SPR (Biacore T200), purified antibody captured through Fc, GPC3 as analyte, 1:1 model

{"columns": ["binder", "Kd [pM]"],
 "data": [
  ["5VH1VL2-hIgG1 (antibody, V domains shown, Humanized LAb19305, full-length human IgG1/kappa) VH: QVQLVQSGAEVKKPGASVKVSCKASGYTFTAYEMHWVRQAPGQRLEWMGGIDPETGNTAYSQNFKGRVTITRDTSASTAYMELSSLRSEDTAVYYCARYYSFAYWGQGTLVTVSS VL: DIVMTQSPLSLPVTPGEPASISCRSSQTIVHSNGNTYLEWYLQKPGQSPQLLIYKVSNRFSGVPDRFSGSGSGTDFTLKISRVEAEDVGVYYCFQVSHVPYTFGGGTKLEIKR", 1100],
  ["5VH2VL3-hIgG1 (antibody, V domains shown, Humanized LAb19305, full-length human IgG1/kappa) VH: QVQLVQSGAEVKKPGASVKVSCKASGYTFTAYEMHWVRQAPGQGLEWMGGIDPETGNTAYSQNFKGRVTMTRDTSTSTVYMELSSLRSEDTAVYYCARYYSFAYWGQGTLVTVSS VL: DIVMTQSPDSLAVSLGERATINCRSSQTIVHSNGNTYLEWYQQKPGQPPKLLIYKVSNRFSGVPDRFSGSGSGTDFTLTISSLQAEDVAVYYCFQVSHVPYTFGGGTKLEIKR", 544],
  ["Chimeric LAb19305-hIgG1 (antibody, V domains shown, The mouse VH/VL numbers follow the parallel order of the lists, as for LAb19305) VH: QVQLQQSGAELVRPGASVTLSCKASGYTFTAYEMHWVKQTPVYGLEWIGGIDPETGNTAYSQNFKGKATLTADKSSSTAYMEVRSLTSEDSAVYYCSRYYSFAYWGQGTLVTVSA VL: DVLMTQTPLSLPVSLGDQASISCRSSQTIVHSNGNTYLEWYLQKPGQSPKLLIYKVSNRFSGVPDRFSGSGSGTDFTLKISRVEAEDLGVYYCFQVSHVPYTFGGGTKLEIKR", 840],
  ["5VH2VL2-hIgG1 (antibody, V domains shown, Humanized LAb19305, full-length human IgG1/kappa) VH: QVQLVQSGAEVKKPGASVKVSCKASGYTFTAYEMHWVRQAPGQGLEWMGGIDPETGNTAYSQNFKGRVTMTRDTSTSTVYMELSSLRSEDTAVYYCARYYSFAYWGQGTLVTVSS VL: DIVMTQSPLSLPVTPGEPASISCRSSQTIVHSNGNTYLEWYLQKPGQSPQLLIYKVSNRFSGVPDRFSGSGSGTDFTLKISRVEAEDVGVYYCFQVSHVPYTFGGGTKLEIKR", 572]
]}
